system: MDA-MB-468 spheroids with HUVEC/MSC, viability; test: Anticancer human tumor MDA-MB-468 cell line growth inhibition [PI3K]; conditions: second compound 1 µM; first compound 10 µM; stronger effect = lower value;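 further: spheroids exposed to agents for seven days before readout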;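 on viability, T/C: 100% = DMSO vehicle control viability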
# thresholds on viability, T/C define classes: A (below 9%), B (9% to below 20%), C (20% or more)

{"columns": ["MOLECULE", "TARGET_UNDER_TEST", "ASSIGNED_LABEL"],
 "data": [
  ["Cn1nccc1Nc1nccc(-c2ccn(C(CO)c3ccc(Cl)c(F)c3)c(=O)c2)n1 (stereo not given) + CC(Nc1ncnc2nc[nH]c12)c1cc2cccc(Cl)c2c(=O)n1-c1ccccc1", "MDA-MB-468 spheroids with HUVEC/MSC, viability", "C"],
  ["CCCS(=O)(=O)Nc1ccc(F)c(C(=O)c2c[nH]c3ncc(-c4ccc(Cl)cc4)cc23)c1F + COc1c(OCCCN2CCOCC2)ccc2c3n(c(=NC(=O)c4cnc(N)nc4)nc12)CCN3", "MDA-MB-468 spheroids with HUVEC/MSC, viability", "A"],
  ["CNC(=O)c1ccc(N2C(=S)N(c3ccc(C#N)c(C(F)(F)F)c3)C(=O)C2(C)C)cc1F + CC(Nc1ncnc2nc[nH]c12)c1cc2cccc(Cl)c2c(=O)n1-c1ccccc1", "MDA-MB-468 spheroids with HUVEC/MSC, viability", "C"],
  ["CC1(C)CCC(Nc2ncc(C(F)(F)F)c(-c3c[nH]c4c(P(C)(C)=O)c(C#N)ccc34)n2)CN1 (stereo not given) + Cc1nc(NC(=O)N2CCCC2C(N)=O)sc1-c1ccnc(C(C)(C)C(F)(F)F)c1", "MDA-MB-468 spheroids with HUVEC/MSC, viability", "A"],
  ["CC1(C)CCC(CN2CCN(c3ccc(C(=O)NS(=O)(=O)c4ccc(NCC5CCOCC5)c([N+](=O)[O-])c4)c(Oc4cnc5[nH]ccc5c4)c3)CC2)=C(c2ccc(Cl)cc2)C1 + CC(Nc1ncnc2nc[nH]c12)c1cc2cccc(Cl)c2c(=O)n1-c1ccccc1", "MDA-MB-468 spheroids with HUVEC/MSC, viability", "B"],
  ["CC(C)NCC(C(=O)N1CCN(c2ncnc3c2C(C)CC3O)CC1)c1ccc(Cl)cc1 (stereo not given) + CC(Nc1ncnc2nc[nH]c12)c1cc2cccc(Cl)c2c(=O)n1-c1ccccc1", "MDA-MB-468 spheroids with HUVEC/MSC, viability", "C"],
  ["CC(C)NCC(C(=O)N1CCN(c2ncnc3c2C(C)CC3O)CC1)c1ccc(Cl)cc1 (stereo not given) + CC(Nc1ccc2c(c1)OCCn1cc(N3C(=O)OCC3C(F)F)nc1-2)C(N)=O", "MDA-MB-468 spheroids with HUVEC/MSC, viability", "C"],
  ["CC(Cn1ccc(-c2ccc(C#N)c(Cl)c2)n1)NC(=O)c1cc(C(C)O)[nH]n1 (stereo not given) + COc1c(OCCCN2CCOCC2)ccc2c3n(c(=NC(=O)c4cnc(N)nc4)nc12)CCN3", "MDA-MB-468 spheroids with HUVEC/MSC, viability", "A"],
  ["C#Cc1c(F)ccc2cc(O)cc(-c3ncc4c(N5CC6CCC(C5)N6)nc(OCC56CCCN5CC(F)C6)nc4c3F)c12 (stereo not given) + Cc1nc(NC(=O)N2CCCC2C(N)=O)sc1-c1ccnc(C(C)(C)C(F)(F)F)c1", "MDA-MB-468 spheroids with HUVEC/MSC, viability", "B"]
]}

====

system: MDA-MB-468 spheroids with HUVEC/MSC, viability; experiment: Anticancer human tumor MDA-MB-468 cell line growth inhibition [PI3K]; conditions: second compound 0.316 µM; first compound 3.16 µM; active means viability on the fitted dose curve at most 10% of control; inactive means the rest;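 further: spheroids exposed to agents for seven days before readout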
Possible outcomes: active, inactive

{"columns": ["COMPOUND", "ASSIGNED_LABEL"],
 "data": [
  ["C#Cc1c(F)ccc2cc(O)cc(-c3ncc4c(N5CC6CCC(C5)N6)nc(OCC56CCCN5CC(F)C6)nc4c3F)c12 (stereo not drawn) + CC(Nc1ncnc2nc[nH]c12)c1cc2cccc(Cl)c2c(=O)n1-c1ccccc1", "inactive"],
  ["CC1(C)CCC(Nc2ncc(C(F)(F)F)c(-c3c[nH]c4c(P(C)(C)=O)c(C#N)ccc34)n2)CN1 (stereo not drawn) + COc1c(OCCCN2CCOCC2)ccc2c3n(c(=NC(=O)c4cnc(N)nc4)nc12)CCN3", "active"],
  ["CCCS(=O)(=O)Nc1ccc(F)c(C(=O)c2c[nH]c3ncc(-c4ccc(Cl)cc4)cc23)c1F + CC(Nc1ncnc2nc[nH]c12)c1cc2cccc(Cl)c2c(=O)n1-c1ccccc1", "inactive"]
]}

====

tested on: MDA-MB-468 spheroids with HUVEC/MSC, viability; assay: Anticancer human tumor MDA-MB-468 cell line growth inhibition [PI3K]; details: curve of first compound; second compound 3.16 µM;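 further: spheroids exposed to agents for seven days before readout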
pIC50: −log10 of the molar value.

{"columns": ["COMPOUND", "TARGET_UNDER_TEST", "RESULT_QUALIFIER", "pIC50"],
 "data": [
  ["CC(C)n1nc(-c2ccc3oc(N)nc3c2)c2c(N)ncnc21 + CC(Nc1ncnc2nc[nH]c12)c1cc2cccc(Cl)c2c(=O)n1-c1ccccc1", "MDA-MB-468 spheroids with HUVEC/MSC, viability", "=", 7.95],
  ["CC(=O)c1c(C)c2cnc(Nc3ccc(N4CCNCC4)cn3)nc2n(C2CCCC2)c1=O + Cc1nc(NC(=O)N2CCCC2C(N)=O)sc1-c1ccnc(C(C)(C)C(F)(F)F)c1", "MDA-MB-468 spheroids with HUVEC/MSC, viability", "<", 7.00],
  ["Cn1ncc(Cl)c1-c1cc(C(=O)NC(CN)Cc2cccc(F)c2)sc1Cl (stereo unspecified) + Cc1nc(NC(=O)N2CCCC2C(N)=O)sc1-c1ccnc(C(C)(C)C(F)(F)F)c1", "MDA-MB-468 spheroids with HUVEC/MSC, viability", "=", 7.05],
  ["CC(Cn1ccc(-c2ccc(C#N)c(Cl)c2)n1)NC(=O)c1cc(C(C)O)[nH]n1 (stereo unspecified) + Cc1nc(NC(=O)N2CCCC2C(N)=O)sc1-c1ccnc(C(C)(C)C(F)(F)F)c1", "MDA-MB-468 spheroids with HUVEC/MSC, viability", "<", 5.00],
  ["CNC(=O)c1ccc(N2C(=S)N(c3ccc(C#N)c(C(F)(F)F)c3)C(=O)C2(C)C)cc1F + CC(Nc1ncnc2nc[nH]c12)c1cc2cccc(Cl)c2c(=O)n1-c1ccccc1", "MDA-MB-468 spheroids with HUVEC/MSC, viability", "=", 5.11],
  ["CCCS(=O)(=O)Nc1ccc(F)c(C(=O)c2c[nH]c3ncc(-c4ccc(Cl)cc4)cc23)c1F + CC(Nc1ncnc2nc[nH]c12)c1cc2cccc(Cl)c2c(=O)n1-c1ccccc1", "MDA-MB-468 spheroids with HUVEC/MSC, viability", "=", 5.60]
]}

====

Listing of entries alongside the reported viability, T/C.
tested on: MDA-MB-468 spheroids with HUVEC/MSC, viability; test: Anticancer human tumor MDA-MB-468 cell line growth inhibition [PI3K]; conditions: second compound 0.0316 µM; first compound 0.00316 µM; stronger effect = lower value;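 further: spheroids exposed to agents for seven days before readout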;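 on viability, T/C: 100% = DMSO vehicle control viability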

{"columns": ["MOLECULE", "viability, T/C"],
 "data": [
  ["CCN1CCN(Cc2ccc(Nc3ncc(F)c(-c4cc(F)c5nc(C)n(C(C)C)c5c4)n3)nc2)CC1 + Cc1nc(NC(=O)N2CCCC2C(N)=O)sc1-c1ccnc(C(C)(C)C(F)(F)F)c1", "97.9%"],
  ["CC(C)n1nc(-c2ccc3oc(N)nc3c2)c2c(N)ncnc21 + CC(Nc1ncnc2nc[nH]c12)c1cc2cccc(Cl)c2c(=O)n1-c1ccccc1", "96.1%"],
  ["CCN1CCN(Cc2ccc(Nc3ncc(F)c(-c4cc(F)c5nc(C)n(C(C)C)c5c4)n3)nc2)CC1 + COc1c(OCCCN2CCOCC2)ccc2c3n(c(=NC(=O)c4cnc(N)nc4)nc12)CCN3", "77%"],
  ["CC(C)n1nc(-c2ccc3oc(N)nc3c2)c2c(N)ncnc21 + COc1c(OCCCN2CCOCC2)ccc2c3n(c(=NC(=O)c4cnc(N)nc4)nc12)CCN3", "80.9%"],
  ["CC(=O)c1c(C)c2cnc(Nc3ccc(N4CCNCC4)cn3)nc2n(C2CCCC2)c1=O + CC(Nc1ccc2c(c1)OCCn1cc(N3C(=O)OCC3C(F)F)nc1-2)C(N)=O", "89%"],
  ["CC(=O)c1c(C)c2cnc(Nc3ccc(N4CCNCC4)cn3)nc2n(C2CCCC2)c1=O + Cc1nc(NC(=O)N2CCCC2C(N)=O)sc1-c1ccnc(C(C)(C)C(F)(F)F)c1", "74.8%"],
  ["Cn1ncnc1[C@H]1c2n[nH]c(=O)c3cc(F)cc(c23)N[C@@H]1c1ccc(F)cc1 + Cc1nc(NC(=O)N2CCCC2C(N)=O)sc1-c1ccnc(C(C)(C)C(F)(F)F)c1", "84.7%"],
  ["Cn1ncnc1[C@H]1c2n[nH]c(=O)c3cc(F)cc(c23)N[C@@H]1c1ccc(F)cc1 + CC(Nc1ncnc2nc[nH]c12)c1cc2cccc(Cl)c2c(=O)n1-c1ccccc1", "86.9%"],
  ["CCN1CCN(Cc2ccc(Nc3ncc(F)c(-c4cc(F)c5nc(C)n(C(C)C)c5c4)n3)nc2)CC1 + CC(Nc1ncnc2nc[nH]c12)c1cc2cccc(Cl)c2c(=O)n1-c1ccccc1", "98.7%"],
  ["Cn1ncnc1[C@H]1c2n[nH]c(=O)c3cc(F)cc(c23)N[C@@H]1c1ccc(F)cc1 + COc1c(OCCCN2CCOCC2)ccc2c3n(c(=NC(=O)c4cnc(N)nc4)nc12)CCN3", "70.2%"],
  ["CC(=O)c1c(C)c2cnc(Nc3ccc(N4CCNCC4)cn3)nc2n(C2CCCC2)c1=O + COc1c(OCCCN2CCOCC2)ccc2c3n(c(=NC(=O)c4cnc(N)nc4)nc12)CCN3", "72.2%"],
  ["CC(C)n1nc(-c2ccc3oc(N)nc3c2)c2c(N)ncnc21 + CC(Nc1ccc2c(c1)OCCn1cc(N3C(=O)OCC3C(F)F)nc1-2)C(N)=O", "77.4%"],
  ["Cn1ncnc1[C@H]1c2n[nH]c(=O)c3cc(F)cc(c23)N[C@@H]1c1ccc(F)cc1 + CC(Nc1ccc2c(c1)OCCn1cc(N3C(=O)OCC3C(F)F)nc1-2)C(N)=O", "83%"],
  ["CCN1CCN(Cc2ccc(Nc3ncc(F)c(-c4cc(F)c5nc(C)n(C(C)C)c5c4)n3)nc2)CC1 + CC(Nc1ccc2c(c1)OCCn1cc(N3C(=O)OCC3C(F)F)nc1-2)C(N)=O", "103%"],
  ["CC(C)n1nc(-c2ccc3oc(N)nc3c2)c2c(N)ncnc21 + Cc1nc(NC(=O)N2CCCC2C(N)=O)sc1-c1ccnc(C(C)(C)C(F)(F)F)c1", "89.5%"],
  ["CC(=O)c1c(C)c2cnc(Nc3ccc(N4CCNCC4)cn3)nc2n(C2CCCC2)c1=O + CC(Nc1ncnc2nc[nH]c12)c1cc2cccc(Cl)c2c(=O)n1-c1ccccc1", "84.6%"]
]}
